# credit: ChEMBL document CHEMBL1909046

# Experimental Target: Alpha-2C adrenergic receptor (Homo sapiens)
# Sequence (P18825 whole entry): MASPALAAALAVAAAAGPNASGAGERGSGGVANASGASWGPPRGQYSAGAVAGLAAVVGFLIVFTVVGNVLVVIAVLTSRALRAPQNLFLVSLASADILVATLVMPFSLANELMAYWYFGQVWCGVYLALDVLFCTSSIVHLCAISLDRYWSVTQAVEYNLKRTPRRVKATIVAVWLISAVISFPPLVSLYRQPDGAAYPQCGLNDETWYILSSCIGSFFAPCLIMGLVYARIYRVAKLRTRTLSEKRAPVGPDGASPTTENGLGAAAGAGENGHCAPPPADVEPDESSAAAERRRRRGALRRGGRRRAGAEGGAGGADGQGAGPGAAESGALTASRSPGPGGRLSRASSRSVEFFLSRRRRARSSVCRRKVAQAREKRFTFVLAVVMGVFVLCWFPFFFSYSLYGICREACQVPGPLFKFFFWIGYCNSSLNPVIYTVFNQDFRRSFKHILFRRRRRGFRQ
# Procedure Details: DRUGMATRIX: Adrenergic Alpha-2C radioligand binding (ligand: [3H] MK-912)
# Assay type: cell membranes, Sf9, Membrane
# Run Parameters: sf9
Where a SMILES comes first, the peptide text is derived from it. Bridges are numbered along the chain shown (N, C = ends). [ ]: non-standard residue; d: D form. The star is where a group is joined. Threoninol(2S,3R) = C[C@@H](O)[C@H](CO)N*

Compound | Experimental Target | IC50
CCCCOc1ccc(OCCCN2CCOCC2)cc1 | Alpha-2C adrenergic receptor (Homo sapiens) | Not Active
CC(C)[C@H]1CC[C@H](C(=O)N[C@H](Cc2ccccc2)C(=O)O)CC1 [NATEGLINIDE] | Alpha-2C adrenergic receptor (Homo sapiens) | Not Active
CC(C)c1nc(CN(C)C(=O)N[C@H](C(=O)N[C@@H](Cc2ccccc2)C[C@H](O)[C@H](Cc2ccccc2)NC(=O)OCc2cncs2)C(C)C)cs1 | Alpha-2C adrenergic receptor (Homo sapiens) | Not Active
CN1C(C(=O)Nc2ccccn2)=C(O)c2sccc2S1(=O)=O | Alpha-2C adrenergic receptor (Homo sapiens) | Not Active
COc1ccc2[nH]c([S+]([O-])Cc3ncc(C)c(OC)c3C)nc2c1 (configuration not stated) | Alpha-2C adrenergic receptor (Homo sapiens) | Not Active
Cc1cc(=O)n(-c2ccccc2)n1C [ANTIPYRINE] | Alpha-2C adrenergic receptor (Homo sapiens) | Not Active
ClC(Cl)Cl [CHLOROFORM] | Alpha-2C adrenergic receptor (Homo sapiens) | Not Active
C[C@@H](O)[C@H](CO)NC(=O)[C@@H]1CSSC[C@H](NC(=O)[C@H](N)Cc2ccccc2)C(=O)N[C@@H](Cc2ccccc2)C(=O)N[C@H](Cc2c[nH]c3ccccc23)C(=O)N[C@@H](CCCCN)C(=O)N[C@@H]([C@@H](C)O)C(=O)N1 (H-[dF]CF[dW]KTC-{Threoninol(2S,3R)}; disulfide 2-7) | Alpha-2C adrenergic receptor (Homo sapiens) | Not Active
CC1(C)O[C@@H]2C[C@H]3[C@@H]4C[C@H](F)C5=CC(=O)C=C[C@]5(C)[C@@]4(F)[C@@H](O)C[C@]3(C)[C@]2(C(=O)CO)O1 [FLUOCINOLONE ACETONIDE] | Alpha-2C adrenergic receptor (Homo sapiens) | Not Active
C[C@@H]1C[C@@H]([C@H](O)CC2CC(=O)NC(=O)C2)C(=O)[C@@H](C)C1 [CYCLOHEXIMIDE] | Alpha-2C adrenergic receptor (Homo sapiens) | Not Active
Cn1c(=O)c2c(ncn2CC2OCCO2)n(C)c1=O | Alpha-2C adrenergic receptor (Homo sapiens) | Not Active
C[N+](C)(C)CCO.[Cl-] [CHOLINE CHLORIDE] | Alpha-2C adrenergic receptor (Homo sapiens) | Not Active
CC(=O)N[C@@H]1[C@H](Oc2c3cc4cc2Oc2ccc(cc2Cl)[C@@H](O[C@@H]2O[C@@H](CO)[C@@H](O)[C@H](O)[C@@H]2NC(C)=O)[C@@H]2NC(=O)[C@H](NC(=O)[C@@H]4NC(=O)[C@H]4NC(=O)[C@@H](Cc5ccc(c(Cl)c5)O3)NC(=O)[C@H](N)c3ccc(O)c(c3)Oc3cc(O)cc4c3)c3ccc(O)c(c3)-c3c(O[C@H]4O[C@H](CO)[C@@H](O)[C@@H](O)[C@@H]4O)cc(O)cc3[C@@H](C(=O)O)NC2=O)O[C@@H](CO)[C@@H](O)[C@@H]1O | Alpha-2C adrenergic receptor (Homo sapiens) | Not Active
C#C[C@]1(O)CC[C@H]2[C@@H]3CCc4cc(OC)ccc4[C@H]3CC[C@@]21C | Alpha-2C adrenergic receptor (Homo sapiens) | Not Active
Cc1nccn1CC1CCc2c(c3ccccc3n2C)C1=O (configuration not stated) | Alpha-2C adrenergic receptor (Homo sapiens) | Not Active
C[C@]1(Cn2ccnn2)[C@H](C(=O)O)N2C(=O)C[C@H]2S1(=O)=O | Alpha-2C adrenergic receptor (Homo sapiens) | Not Active
Oc1ccc(OCc2ccccc2)cc1 | Alpha-2C adrenergic receptor (Homo sapiens) | Not Active

====

# Experimental Target: Cytochrome P450 2D6 (Homo sapiens, UniProt P10635); further: in other assays of this panel Not Active means under 50% inhibition at 10 µM
# Sequence (P10635 whole entry): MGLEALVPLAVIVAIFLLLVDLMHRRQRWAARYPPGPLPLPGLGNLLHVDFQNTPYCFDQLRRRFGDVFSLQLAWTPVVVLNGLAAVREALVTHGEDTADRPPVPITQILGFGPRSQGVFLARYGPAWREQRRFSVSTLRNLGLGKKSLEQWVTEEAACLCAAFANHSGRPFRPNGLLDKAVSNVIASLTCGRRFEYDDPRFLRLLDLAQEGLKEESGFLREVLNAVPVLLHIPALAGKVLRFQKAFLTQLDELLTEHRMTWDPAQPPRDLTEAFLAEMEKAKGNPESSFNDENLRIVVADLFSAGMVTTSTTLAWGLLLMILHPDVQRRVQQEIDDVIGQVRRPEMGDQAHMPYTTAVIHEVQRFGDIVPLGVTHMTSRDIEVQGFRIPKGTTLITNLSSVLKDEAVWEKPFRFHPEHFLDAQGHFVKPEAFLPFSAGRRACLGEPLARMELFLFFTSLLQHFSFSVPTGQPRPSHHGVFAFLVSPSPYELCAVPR
# Run Parameters: bti-tn-5b1-4

Molecule | IC50
C[C@H]1O[C@@H](O[C@H]2[C@@H](O)C[C@H](O[C@H]3[C@@H](O)C[C@H](O[C@H]4CC[C@@]5(C)[C@H](CC[C@@H]6[C@@H]5CC[C@]5(C)[C@@H](C7=CC(=O)OC7)CC[C@]65O)C4)O[C@@H]3C)O[C@@H]2C)C[C@H](O)[C@@H]1O | Not Active
ClC(Cl)Cl [CHLOROFORM] | Not Active
CC1(C)O[C@@H]2C[C@H]3[C@@H]4C[C@H](F)C5=CC(=O)CC[C@]5(C)[C@H]4[C@@H](O)C[C@]3(C)[C@]2(C(=O)CO)O1 [FLURANDRENOLIDE] | Not Active

====

# Experimental Target: Beta-1 adrenergic receptor (Homo sapiens)
# Sequence (P08588 whole entry): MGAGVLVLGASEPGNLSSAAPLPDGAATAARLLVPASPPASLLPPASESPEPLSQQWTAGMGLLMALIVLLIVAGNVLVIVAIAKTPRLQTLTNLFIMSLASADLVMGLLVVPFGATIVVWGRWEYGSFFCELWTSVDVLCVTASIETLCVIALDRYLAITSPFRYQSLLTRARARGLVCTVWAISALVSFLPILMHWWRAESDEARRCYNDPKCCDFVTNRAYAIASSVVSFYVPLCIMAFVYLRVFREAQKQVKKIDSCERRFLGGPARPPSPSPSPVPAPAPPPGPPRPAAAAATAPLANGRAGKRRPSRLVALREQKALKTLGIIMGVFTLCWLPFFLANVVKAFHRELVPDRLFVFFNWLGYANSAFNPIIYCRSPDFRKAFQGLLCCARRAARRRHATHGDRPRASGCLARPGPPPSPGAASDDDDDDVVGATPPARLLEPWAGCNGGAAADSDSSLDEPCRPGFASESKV
# Procedure Details: DRUGMATRIX: Adrenergic beta1 radioligand binding (ligand: [125I] Cyanopindolol)
# Type: cell membranes, CHO-K1, Membrane
# Run Parameters: cho-k1; Not Active = under 50% inhibition at 10 µM

Molecule | IC50
CC(=O)N[C@@H]1[C@H](Oc2c3cc4cc2Oc2ccc(cc2Cl)[C@@H](O[C@@H]2O[C@@H](CO)[C@@H](O)[C@H](O)[C@@H]2NC(C)=O)[C@@H]2NC(=O)[C@H](NC(=O)[C@@H]4NC(=O)[C@H]4NC(=O)[C@@H](Cc5ccc(c(Cl)c5)O3)NC(=O)[C@H](N)c3ccc(O)c(c3)Oc3cc(O)cc4c3)c3ccc(O)c(c3)-c3c(O[C@H]4O[C@H](CO)[C@@H](O)[C@@H](O)[C@@H]4O)cc(O)cc3[C@@H](C(=O)O)NC2=O)O[C@@H](CO)[C@@H](O)[C@@H]1O | Not Active
Cc1cc(C)nc(NS(=O)(=O)c2ccc(N)cc2)n1 [SULFAMETHAZINE] | Not Active

====

# Experimental Target: UniProt P0DMS8
# Sequence (P0DMS8 whole entry): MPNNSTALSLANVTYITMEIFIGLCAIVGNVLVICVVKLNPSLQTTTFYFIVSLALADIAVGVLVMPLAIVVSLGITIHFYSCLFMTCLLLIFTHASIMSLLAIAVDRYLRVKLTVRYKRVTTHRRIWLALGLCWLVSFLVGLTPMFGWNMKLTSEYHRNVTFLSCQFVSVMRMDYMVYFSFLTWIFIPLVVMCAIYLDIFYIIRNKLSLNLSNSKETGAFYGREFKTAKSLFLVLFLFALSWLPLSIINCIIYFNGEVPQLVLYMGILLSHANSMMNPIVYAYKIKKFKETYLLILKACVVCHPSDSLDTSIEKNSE
# Assay type: cell membranes, CHO-K1, Membrane
# Run Parameters: cho-k1
Readout Name: IC50

Molecule | Experimental Target | Readout Name | Result
CC(=O)N[C@@H]1[C@H](Oc2c3cc4cc2Oc2ccc(cc2Cl)[C@@H](O[C@@H]2O[C@@H](CO)[C@@H](O)[C@H](O)[C@@H]2NC(C)=O)[C@@H]2NC(=O)[C@H](NC(=O)[C@@H]4NC(=O)[C@H]4NC(=O)[C@@H](Cc5ccc(c(Cl)c5)O3)NC(=O)[C@H](N)c3ccc(O)c(c3)Oc3cc(O)cc4c3)c3ccc(O)c(c3)-c3c(O[C@H]4O[C@H](CO)[C@@H](O)[C@@H](O)[C@@H]4O)cc(O)cc3[C@@H](C(=O)O)NC2=O)O[C@@H](CO)[C@@H](O)[C@@H]1O | UniProt P0DMS8 | IC50 | Not Active
CCOC(=O)C(C)(C)Oc1ccc(Cl)cc1 [CLOFIBRATE] | UniProt P0DMS8 | IC50 | Not Active
COc1ccc2c(c1)c(CC(=O)O)c(C)n2C(=O)c1ccc(Cl)cc1 | UniProt P0DMS8 | IC50 | Not Active
CN1C(C(=O)Nc2ccccn2)=C(O)c2sccc2S1(=O)=O | UniProt P0DMS8 | IC50 | Not Active
CC(=O)Nc1cccc(O)c1 | UniProt P0DMS8 | IC50 | Not Active
CCCC(CCC)C(=O)O | UniProt P0DMS8 | IC50 | Not Active
N[C@H](CSC(=S)NCc1ccccc1)C(=O)O | UniProt P0DMS8 | IC50 | Not Active
CC(C)C[C@H](NC(=O)[C@@H](O)[C@H](N)Cc1ccccc1)C(=O)O | UniProt P0DMS8 | IC50 | Not Active

====

Documented IC50 across a set of compounds
# Experimental Target: Alpha-1D adrenergic receptor (Homo sapiens); further: in other assays of this panel Not Active means under 50% inhibition at 10 µM
# Sequence (P25100 whole entry): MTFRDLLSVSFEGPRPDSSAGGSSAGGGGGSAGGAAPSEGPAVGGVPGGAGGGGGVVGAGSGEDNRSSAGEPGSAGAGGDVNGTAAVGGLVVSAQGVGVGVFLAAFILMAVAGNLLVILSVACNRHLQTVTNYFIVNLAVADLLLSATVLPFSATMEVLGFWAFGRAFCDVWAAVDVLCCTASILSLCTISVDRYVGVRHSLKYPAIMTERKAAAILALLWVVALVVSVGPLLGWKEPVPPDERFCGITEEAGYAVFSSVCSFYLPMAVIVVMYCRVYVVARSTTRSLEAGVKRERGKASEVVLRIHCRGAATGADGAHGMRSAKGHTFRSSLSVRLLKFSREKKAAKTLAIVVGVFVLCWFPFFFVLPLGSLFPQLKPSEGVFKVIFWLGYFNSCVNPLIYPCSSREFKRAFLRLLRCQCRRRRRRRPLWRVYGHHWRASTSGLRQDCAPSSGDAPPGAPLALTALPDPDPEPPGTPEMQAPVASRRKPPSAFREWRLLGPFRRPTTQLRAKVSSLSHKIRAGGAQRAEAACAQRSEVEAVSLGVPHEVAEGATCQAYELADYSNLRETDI
# Type: cell membranes, HEK293, Membrane
# Run Parameters: read-out: IC50

Structure | IC50 / nM
CC/C(=C(/CC)c1ccc(O)cc1)c1ccc(O)cc1 | 10800
Clc1ccc2c(c1)C(N1CCNCC1)=Nc1ccccc1O2 | 306
CN(C)c1ccc(C(=C2C=CC(=[N+](C)C)C=C2)c2ccc(N(C)C)cc2)cc1.[Cl-] | 1980
CN1CCC(=C2c3ccccc3C=Cc3ccccc32)CC1 | 107
O=C(c1ccc(OCCN2CCCCC2)cc1)c1c(-c2ccc(O)cc2)sc2cc(O)ccc12 | 973
